The measured values listed here are drawn from PubChem BioAssay (NCI).

# Tested on: UACC-62 melanoma
# Experiment Notes: NCI-60 one-dose screen, 48 h (100 = growth as untreated, 0 = no growth, -100 = all killed)
# Experimental Setup: 10 µM unless noted
This is part of a sample that, as a whole, favours compounds with a hit. Of some 83,000 tested, about 20% had one in any assay.
Endpoint Label: growth (%)
Numeric only. Scale: %

Some solved cases for reference:
Smiles Str	System Tested	growth, %
CCN(CC)CC(=O)Nc1c(C)cccc1C	UACC-62 melanoma	105
CO[C@H]1/C=C/C=C/C=C/C[C@H](OC(=O)[C@@H](C)NC(=O)C2CCCCC2)[C@H](C)[C@@H](O)/C(C)=C\CCC2=CC(=O)C=C(NC(=O)C1)C2=O	UACC-62 melanoma	2.09

Problem: What is its growth for UACC-62 melanoma? Entry: O=C(Nc1ccc(-n2ccc3c(NC(=O)c4ccccc4)nccc32)cc1)Nc1cccc(C(F)(F)F)c1
Solution: 78.6

Problem: Please give the result for COc1cc(C(=O)N2CCN(C(=O)c3cc(OC)c(OCc4ccccc4)cc3N)CC2)c(N)cc1OCc1ccccc1 too.
Solution: 114

###

# Test system: SF-539 CNS
# Experiment Notes: NCI-60 one-dose screen, 48 h (100 = growth as untreated, 0 = no growth, -100 = all killed)
# Experimental Setup: 10 µM unless noted
Compounds without any hit were thinned out: in the full panel of roughly 83,000, 20% have a hit.
Threshold 90%: growth strictly smaller gives satisfied, otherwise not satisfied.

Problem: Dear reviewer, please state whether C=C1C(=O)O[C@H]2[C@H]1CC/C(C(=O)Nc1ccc(OC)c(C(N)=O)c1O)=C\CC[C@@]1(C)O[C@@H]21 has growth strictly beneath 90%.
Solution: satisfied

Problem: Param item: CC(CCC(=O)O)[C@H]1CCC2C3C(=O)C[C@@H]4CC(=O)CC[C@]4(C)C3CC(=O)[C@@]21C (stereo partly specified)
Solution: not satisfied

Problem: Param item: CN1C(=O)C2(NN=C(c3cccc4ccccc34)S2)c2ccccc21 (stereo unspecified)
Solution: satisfied

###

# Test system: T-47D breast
# Experiment Notes: NCI-60 one-dose screen, 48 h
# Experimental Setup: 10 µM unless noted
# Protocol: Growth inhibition of the T-47D human tumor cell line is measured as a screen for anti-cancer activity. Cells are grown in 96 well plates and exposed to the test compound for 48 hours. Compounds are tested at a single concentration, which is 10^-5 M for most compounds. The reported endpoint is percent growth (GI% or GIPRCNT), where numbers from 0 - 100% represent growth inhibition, and numbers from -100% - 0 represent cell death. For example, a value of 40 represents 60% growth inhibition. […]
This is part of a sample that, as a whole, favours compounds with a hit. Of some 83,000 tested, about 20% had one in any assay. Active and inactive are the calls of the source. How the source made its calls: active means growth percent below 10; inactive means the rest.
Your response should consist of one outcome taken from TRUE for active, FALSE for inactive

Problem: Recorded call for CCN1CCN(Cc2ccc(NC(=O)Nc3cccc(-n4ccc5c(NC(=O)c6ccccc6)nccc54)c3)cc2C(F)(F)F)CC1 ?
Solution: FALSE

Problem: Could you do the same for C=C1C(=O)O[C@H]2[C@H]1CC/C(CNC(=O)/C1=C/CC[C@@]3(C)O[C@H]3[C@H]3OC(=O)C(=C)[C@@H]3CC1)=C\CC[C@@]1(C)O[C@@H]21 , please?
Solution: FALSE

Problem: And what about the molecule COc1ccc2c(c1)nnn1c3ncccc3c(N=O)c21 ?
Solution: TRUE

Problem: Param item: COc1cc(-c2nc3ccccc3s2)ccc1OCc1nc2n(n1)S(=O)(=O)c1ccccc1N2c1ccccc1
Solution: FALSE

###

# System: NCI/ADR-RES ovarian
# Experiment Notes: NCI-60 one-dose screen, 48 h (100 = growth as untreated, 0 = no growth, -100 = all killed)
# Experimental Setup: 10 µM unless noted
About 83,000 compounds went through this panel and 20% of them were active in at least one assay; those are over-represented in the sample as a whole.
Endpoint Label: growth (%)
Write it as a number; the unit % goes unstated.

Compound	System Tested	growth / %
COc1cc(C(=O)N2CCN(C(=O)c3cc(OC)c(OCc4ccccc4)cc3N)CC2)c(N)cc1OCc1ccccc1	NCI/ADR-RES ovarian	98.7
CN(C)CCNc1nc2ccccc2c2c(=O)c3ccccc3sc12	NCI/ADR-RES ovarian	20.9
O=C(NCCNc1nccc(-c2c(-c3cccc(O)c3)nc3sccn23)n1)c1ccccc1	NCI/ADR-RES ovarian	99.7
Cc1ccc(N(CC2=NCCN2)c2cccc(O)c2)cc1	NCI/ADR-RES ovarian	104
O=C(COc1ccc(Cl)cc1Cl)N1N=C(c2ccc(Cl)cc2Cl)CC1(O)c1cc(F)c(Cl)cc1Cl (stereo not given)	NCI/ADR-RES ovarian	106

Problem: Which growth is reported for this compound? COc1ccc(N)c(S)c1
Solution: 98.4

Problem: And then Cc1ccc(Cn2cc(COc3ccc4c5ccnc(C)c5n(CCCc5ccccc5)c4c3)nn2)cc1 , what is it?
Solution: 76.4

Problem: What about this compound? COC(OC)C1(c2ccccc2)NC(=O)NC1=O (stereo not given)
Solution: 116

Problem: # repeat for COc1ccc(/C(=C/c2cc(OC)c(OC)c(OC)c2)[N+](=O)[O-])cc1
Solution: 33.8

Problem: Try the compound CC(CCC(=O)O)[C@H]1CCC2C3C(=O)C[C@@H]4CC(=O)CC[C@]4(C)C3CC(=O)[C@@]21C (stereo not given in full)
Solution: 99.7

###

# Test system: K-562 leukemia
# Experiment Notes: NCI-60 one-dose screen, 48 h (100 = growth as untreated, 0 = no growth, -100 = all killed)
# Experimental Setup: 10 µM unless noted
Compounds without any hit were thinned out: in the full panel of roughly 83,000, 20% have a hit.
just bin them by growth: class A = under -10%, class B = from -10% up to 50%, class C = 50% and over

// known answers, use as guide
Compound	Label
O=c1c2ccccc2sc2c(NCCN3CCOCC3)nc3ccccc3c12	class A
COc1cc(C(=O)N2CCN(C(=O)c3cc(OC)c(OCc4ccccc4)cc3N)CC2)c(N)cc1OCc1ccccc1	class B
CC(NCCC(c1ccccc1)c1ccccc1)c1ccccc1 (centres undefined)	class A
COc1cc([C@@H]2c3cc4c(cc3C(OC3O[C@@H]5COC(C)O[C@H]5[C@H](O)[C@H]3O)C3COC(=O)[C@@H]32)OCO4)cc(OC)c1O (some centres undefined)	class B
CN1CCN(C(=O)/C=C/c2ccc([N+](=O)[O-])o2)CC1	class C
CC(C)C(=O)Nc1nc2c(s1)CCCc1ccn(S(=O)(=O)c3ccccc3)c1-2	class C

Attention now turns to another entry.
Problem: State the band of CC1(C)N=C(N)N=C(N)N1c1cccc(CCCCc2ccccc2)c1
Solution: class A

###

# Test system: NCI-H460 lung
# Experiment Notes: NCI-60 one-dose screen, 48 h (100 = growth as untreated, 0 = no growth, -100 = all killed)
# Experimental Setup: 10 µM unless noted
The panel holds about 83,000 compounds, 20% with a hit somewhere; the sample as a whole holds those more often.
Catalogue of growth readings, one per entry.
Form entry: value (%) — number only.

Examples from the recorded data:
Compound	System Tested	Endpoint Label	Measured Number
COc1cccc(-c2nc3sccn3c2-c2ccnc(NCCNC(=O)Nc3cccc(C(F)(F)F)c3)n2)c1	NCI-H460 lung	growth	45.1
CN(CCNCc1ccccn1)CCNCc1ccccn1	NCI-H460 lung	growth	-7.2
COc1ccc(/C=C/C(=O)c2ccc(-n3cc(CN4CCN(c5cc6c(cc5F)c(=O)c(C(=O)O)cn6C5CC5)CC4)nn3)cc2)cc1OC	NCI-H460 lung	growth	53.1
COC(=O)c1oc2c(C(C)=O)c(OCCN3CCCCC3)ccc2c1C	NCI-H460 lung	growth	131
CC(=O)CC/C=C(\C)[C@H](O)[C@H](C)C(=O)O[C@H]1C[C@H](C)C=C2C=C[C@@]3(C)O[C@@H](O)CC(=O)[C@]3(C)[C@H]21	NCI-H460 lung	growth	-16.6

Problem: What value of measured growth is listed for O=C(O)c1ccc(-c2nn(-c3ccc(C(=O)O)cc3)cc2/C=N/Nc2c(F)c(F)cc(F)c2F)cc1 ?
Solution: 114

Problem: Next record, please: CC1(C)N=C(N)N=C(N)N1c1cccc(CCCCc2ccccc2)c1
Solution: 0.878

Problem: # iterate: COc1ccc(/C=N/C2=NNC(C)(c3ccccc3O)N2C(Cc2c[nH]c3ccccc23)C(=O)O)cc1 (centres undefined)
Solution: 20.4

Problem: Likewise for Nc1ncnc2c1c(-c1ccc(Oc3ccccc3)cc1)nn2C[C@H]1SSC[C@H]1O ?
Solution: -43.6

###

# System: SF-268 CNS
# Experiment Notes: NCI-60 one-dose screen, 48 h
# Experimental Setup: 10 µM unless noted
Compounds without any hit were thinned out: in the full panel of roughly 83,000, 20% have a hit. Activity calls are given as the source filed them. How the source made its calls: active means growth percent below 10; inactive means the rest.
Classes to choose from: yes (active), no (inactive)

// below: answered compounds
Compound	Label
NS(=O)(=O)c1ccc(Nc2nc(O)c(/C=C3\C=Nc4ccccc43)s2)cc1	no
CCCCNc1cc(C(=O)O)cc(S(N)(=O)=O)c1Oc1ccccc1	no
Cc1cccc(Cc2cnc(NC(=O)CCc3ccc(C)o3)s2)c1	no
CCCOC(=O)c1ccc([N+](=O)[O-])o1	no
c1ccc2nc(Cn3cc[n+](Cc4ccc5ccccc5n4)c3)ccc2c1	no

Problem: Per the records of this test, what outcome belongs to O=C(O)c1ccc(-n2cc(/C=N/Nc3ccc(Cl)cc3)c(-c3ccc(F)c(F)c3)n2)cc1 ?
Solution: no

Problem: Queued: N#Cc1c(N)nc2c(c1N)C(c1ccc(Cl)cc1)C1=C(CCCC1=O)N2c1sc2c(c1C#N)CCCC2 (stereo unspecified)
Solution: no

Problem: And the next one, CCOc1cccc(Nc2nc(N)nc3[nH]c4ccc(O)cc4c23)c1 ?
Solution: no

Problem: How about this compound: Cc1cc(Nc2ccc(Cl)c(Cl)c2)nc(N)n1
Solution: no

Problem: Next up: O=C(NCCNc1nccc(-c2c(-c3cccc(O)c3)nc3sccn23)n1)c1ccccc1O
Solution: no
